// provenance: ChEMBL document CHEMBL4831511

Target: Proteasome Macropain subunit (Homo sapiens) (UniProt P49721)
Sequence (P49721 whole entry): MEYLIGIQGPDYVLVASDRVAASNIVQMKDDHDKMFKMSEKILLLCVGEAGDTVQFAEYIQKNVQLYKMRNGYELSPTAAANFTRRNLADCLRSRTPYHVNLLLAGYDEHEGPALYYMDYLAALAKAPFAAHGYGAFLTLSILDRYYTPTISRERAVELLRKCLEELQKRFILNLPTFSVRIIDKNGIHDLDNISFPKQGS
Test: Inhibition of trypsin-like activity of human 20S proteasome at 11 uM using boc-Leu-Arg-Arg-AMC as fluorogenic substrate by microplate reader relative to control
Calls of active or inactive are those of the source. The rule behind the calls is not given here.
metric_name: inhibition

compound: CSCC[C@@H](/C=C(\F)S(=O)(=O)c1ccccc1)NC(=O)[C@H](Cc1ccccc1)NC(=O)N1CCN(C)CC1
metric_name: inhibition
result_value: inactive
//
compound: CN1CCN(C(=O)N[C@@H](Cc2ccccc2)C(=O)N[C@H](/C=C(\F)S(=O)(=O)c2ccccc2)CCc2ccccc2)CC1
metric_name: inhibition
result_value: inactive
//
compound: Cc1ccc(C[C@H](NC(=O)c2ccncc2)C(=O)N[C@H](/C=C(\F)S(=O)(=O)Oc2ccccc2)CCc2ccccc2)cc1
metric_name: inhibition
result_value: 10%
//
compound: O=C(N[C@@H](Cc1ccccc1)C(=O)N[C@H](/C=C(\F)S(=O)(=O)Oc1ccccc1)CCc1ccccc1)c1ccncc1
metric_name: inhibition
result_value: inactive
//
compound: Cc1ccc(C[C@H](NC(=O)c2ccncc2)C(=O)N[C@H](/C=C(\F)S(=O)(=O)Cc2ccccc2)CCc2ccccc2)cc1
metric_name: inhibition
result_value: inactive

Lookup result for Cc1ccc(C[C@H](NC(=O)c2ccc3c(c2)OCCO3)C(=O)N[C@H](/C=C(\F)S(=O)(=O)Oc2ccccc2)CCc2ccccc2)cc1 ; measured inhibition: inactive

The value of inhibition measured for the compound O=C(N[C@@H](Cc1ccccc1)C(=O)N[C@H](/C=C(\F)S(=O)(=O)c1ccccc1)CCc1ccccc1)c1ccncc1 turned out to be inactive

Query Cc1ccc(C[C@H](NC(=O)c2ccncc2)C(=O)N[C@H](/C=C(\F)S(=O)(=O)c2ccccc2)CCc2ccccc2)cc1 yields inhibition of 12%

Recorded inhibition (compound O=C(N[C@@H](Cc1ccccc1)C(=O)N[C@H](/C=C(\F)S(=O)(=O)c1ccccc1)CCc1ccccc1)c1ccc2c(c1)OCCO2 ): inactive

inhibition measured on CN1CCN(C(=O)N[C@@H](Cc2ccccc2)C(=O)N[C@H](/C=C(\F)S(=O)(=O)c2ccccc2)CSCc2ccccc2)CC1 = 14%
